Values were extracted from PubChem BioAssay AID1963863.

- Test system: 931267-113-T-J1-PDC KRAS spheroid with HUVEC/MSC, viability
- experimentSummary: Anticancer human tumor 931267-113-T-J1-PDC patient-derived colon adenocarcinoma cell line growth inhibition [KRAS2]
- recordedConditions: second compound 10 µM; first compound 0.001 µM; active compounds read low
One threshold, 0.5%, splits the recorded viability, T/C values: lower ones are YES, equal or higher ones are NO.

[[record]]
compound = "CC(=O)Nc1cccc(-n2c(=O)n(C3CC3)c(=O)c3c(Nc4ccc(I)cc4F)n(C)c(=O)c(C)c32)c1 + C=CC(=O)N1CCN(c2nc(=O)n(-c3c(C)ccnc3C(C)C)c3nc(-c4c(O)cccc4F)c(F)cc23)C(C)C1"
label = "NO"

[[record]]
compound = "Cn1ncnc1[C@H]1c2n[nH]c(=O)c3cc(F)cc(c23)N[C@@H]1c1ccc(F)cc1 + C=CC(=O)N1CCN(c2nc(=O)n(-c3c(C)ccnc3C(C)C)c3nc(-c4c(O)cccc4F)c(F)cc23)C(C)C1"
label = "NO"

[[record]]
compound = "CC(=O)Nc1cccc(-n2c(=O)n(C3CC3)c(=O)c3c(Nc4ccc(I)cc4F)n(C)c(=O)c(C)c32)c1 + CC1OCC2(CCN(c3cnc(Sc4ccnc(N)c4Cl)c(N)n3)CC2)C1N"
label = "NO"

[[record]]
compound = "Cn1ncnc1[C@H]1c2n[nH]c(=O)c3cc(F)cc(c23)N[C@@H]1c1ccc(F)cc1 + CNCc1ccccc1-c1csc(C(C)Nc2nc(C)nc3cc(OC)c(OC)cc23)c1"
label = "YES"

[[record]]
compound = "Cn1ncnc1[C@H]1c2n[nH]c(=O)c3cc(F)cc(c23)N[C@@H]1c1ccc(F)cc1 + COc1cc2nc(C)nc(NC(C)c3cc(N)cc(C(F)(F)F)c3)c2cc1OC1CCOC1"
label = "YES"


###

- Test system: 931267-113-T-J1-PDC KRAS spheroid with HUVEC/MSC, viability
- experimentSummary: Anticancer human tumor 931267-113-T-J1-PDC cell line growth inhibition [KRAS2];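 note: compound exposure lasted 7 days before the readout; 100% = DMSO vehicle control viability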
- recordedConditions: second compound 0.316 µM; first compound 0.000316 µM; active compounds read low
- Excerpt: Multicellular complex tumor spheroid response to RAS pathway inhibitors in combination with a targeted agents in patient-derived cell lines with oncogenic KRAS variants from multiple cancer types A high-throughput screen of multi-cell type tumor spheroids was designed to identify active combinations of targeted small molecules and KRAS pathway inhibitors. […] Compounds. […] If the clinical Cmax for an agent had not been determined, the highest concentration tested was 10 microM. […]
measuredParameter: viability, T/C (%)

[[record]]
compound = "Cn1ncnc1[C@H]1c2n[nH]c(=O)c3cc(F)cc(c23)N[C@@H]1c1ccc(F)cc1 + C=CC(=O)N1CCN(c2nc(=O)n(-c3c(C)ccnc3C(C)C)c3nc(-c4c(O)cccc4F)c(F)cc23)C(C)C1"
assayresult = 110

[[record]]
compound = "CN(C)C/C=C/C(=O)Nc1cc2c(Nc3ccc(F)c(Cl)c3)ncnc2cc1O[C@H]1CCOC1 + CC1OCC2(CCN(c3cnc(Sc4ccnc(N)c4Cl)c(N)n3)CC2)C1N"
assayresult = 66.8

[[record]]
compound = "CC(C)n1nc(-c2ccc3oc(N)nc3c2)c2c(N)ncnc21 + CC1OCC2(CCN(c3cnc(Sc4ccnc(N)c4Cl)c(N)n3)CC2)C1N"
assayresult = 85.2

[[record]]
compound = "CC(=O)Nc1cccc(-n2c(=O)n(C3CC3)c(=O)c3c(Nc4ccc(I)cc4F)n(C)c(=O)c(C)c32)c1 + CC1OCC2(CCN(c3cnc(Sc4ccnc(N)c4Cl)c(N)n3)CC2)C1N"
assayresult = 54.3

[[record]]
compound = "Cn1ncnc1[C@H]1c2n[nH]c(=O)c3cc(F)cc(c23)N[C@@H]1c1ccc(F)cc1 + COc1cc2nc(C)nc(NC(C)c3cc(N)cc(C(F)(F)F)c3)c2cc1OC1CCOC1"
assayresult = 83.9

[[record]]
compound = "CC(=O)Nc1cccc(-n2c(=O)n(C3CC3)c(=O)c3c(Nc4ccc(I)cc4F)n(C)c(=O)c(C)c32)c1 + C=CC(=O)N1CCN(c2nc(OCC3CCCN3C)nc3c2CCN(c2cccc4cccc(C)c24)C3)CC1CC#N"
assayresult = 83

[[record]]
compound = "Cn1ncnc1[C@H]1c2n[nH]c(=O)c3cc(F)cc(c23)N[C@@H]1c1ccc(F)cc1 + CC1OCC2(CCN(c3cnc(Sc4ccnc(N)c4Cl)c(N)n3)CC2)C1N"
assayresult = 84

[[record]]
compound = "CC(C)n1nc(-c2ccc3oc(N)nc3c2)c2c(N)ncnc21 + C=CC(=O)N1CCN(c2nc(=O)n(-c3c(C)ccnc3C(C)C)c3nc(-c4c(O)cccc4F)c(F)cc23)C(C)C1"
assayresult = 116

[[record]]
compound = "Cn1ncnc1[C@H]1c2n[nH]c(=O)c3cc(F)cc(c23)N[C@@H]1c1ccc(F)cc1 + C=CC(=O)N1CCN(c2nc(OCC3CCCN3C)nc3c2CCN(c2cccc4cccc(C)c24)C3)CC1CC#N"
assayresult = 89.9

[[record]]
compound = "CN(C)C/C=C/C(=O)Nc1cc2c(Nc3ccc(F)c(Cl)c3)ncnc2cc1O[C@H]1CCOC1 + COc1cc2nc(C)nc(NC(C)c3cc(N)cc(C(F)(F)F)c3)c2cc1OC1CCOC1"
assayresult = 81.8

[[record]]
compound = "CN(C)C/C=C/C(=O)Nc1cc2c(Nc3ccc(F)c(Cl)c3)ncnc2cc1O[C@H]1CCOC1 + C=CC(=O)N1CCN(c2nc(=O)n(-c3c(C)ccnc3C(C)C)c3nc(-c4c(O)cccc4F)c(F)cc23)C(C)C1"
assayresult = 97.5

[[record]]
compound = "CC(C)n1nc(-c2ccc3oc(N)nc3c2)c2c(N)ncnc21 + CNCc1ccccc1-c1csc(C(C)Nc2nc(C)nc3cc(OC)c(OC)cc23)c1"
assayresult = 85.6

[[record]]
compound = "CC(=O)Nc1cccc(-n2c(=O)n(C3CC3)c(=O)c3c(Nc4ccc(I)cc4F)n(C)c(=O)c(C)c32)c1 + CNCc1ccccc1-c1csc(C(C)Nc2nc(C)nc3cc(OC)c(OC)cc23)c1"
assayresult = 111

[[record]]
compound = "Cn1ncnc1[C@H]1c2n[nH]c(=O)c3cc(F)cc(c23)N[C@@H]1c1ccc(F)cc1 + CNCc1ccccc1-c1csc(C(C)Nc2nc(C)nc3cc(OC)c(OC)cc23)c1"
assayresult = 62.4

[[record]]
compound = "CC(C)n1nc(-c2ccc3oc(N)nc3c2)c2c(N)ncnc21 + COc1cc2nc(C)nc(NC(C)c3cc(N)cc(C(F)(F)F)c3)c2cc1OC1CCOC1"
assayresult = 108

[[record]]
compound = "CC(=O)Nc1cccc(-n2c(=O)n(C3CC3)c(=O)c3c(Nc4ccc(I)cc4F)n(C)c(=O)c(C)c32)c1 + COc1cc2nc(C)nc(NC(C)c3cc(N)cc(C(F)(F)F)c3)c2cc1OC1CCOC1"
assayresult = 60.6

[[record]]
compound = "CC(=O)Nc1cccc(-n2c(=O)n(C3CC3)c(=O)c3c(Nc4ccc(I)cc4F)n(C)c(=O)c(C)c32)c1 + C=CC(=O)N1CCN(c2nc(=O)n(-c3c(C)ccnc3C(C)C)c3nc(-c4c(O)cccc4F)c(F)cc23)C(C)C1"
assayresult = 94.5

[[record]]
compound = "CN(C)C/C=C/C(=O)Nc1cc2c(Nc3ccc(F)c(Cl)c3)ncnc2cc1O[C@H]1CCOC1 + C=CC(=O)N1CCN(c2nc(OCC3CCCN3C)nc3c2CCN(c2cccc4cccc(C)c24)C3)CC1CC#N"
assayresult = 77.6

[[record]]
compound = "CC(C)n1nc(-c2ccc3oc(N)nc3c2)c2c(N)ncnc21 + C=CC(=O)N1CCN(c2nc(OCC3CCCN3C)nc3c2CCN(c2cccc4cccc(C)c24)C3)CC1CC#N"
assayresult = 89.6

[[record]]
compound = "CN(C)C/C=C/C(=O)Nc1cc2c(Nc3ccc(F)c(Cl)c3)ncnc2cc1O[C@H]1CCOC1 + CNCc1ccccc1-c1csc(C(C)Nc2nc(C)nc3cc(OC)c(OC)cc23)c1"
assayresult = 114

